Protocol description: Inhibition of HDAC in human A2780CisR cells using Boc-Lys(epsilon-Ac)-AMC as substrate preincubated for 18 hrs followed by substrate addition measured after 3 hrs by fluorescence assay
Assay type: cell-based
Decide using IC50 alone. Strictly below 900 nM: Fulfilled. Equal to or above 900 nM: Not fulfilled.

For COc1cc(NC(=O)NOCCCCCC(=O)NO)c2nccc(C)c2c1 , is the recorded IC50 below the cut-off of 900 nM? Fulfilled

For this molecule, is IC50 lower than 900 nM? O=C(CCCCCONC(=O)Nc1ccc2ncccc2c1)NO Not fulfilled

Confirm or reject: IC50 of Cc1ccc2cccc(NC(=O)NOCCCCCC(=O)NO)c2n1 lies strictly below 900 nM Not fulfilled

Dear colleague, could you confirm whether IC50 of COc1cc(NC(=O)NOCCCCCC(=O)NO)c2nc(OC)cc(C)c2c1 falls below 900 nM? Thanks. Fulfilled

====

Protocol description: Inhibition of HDAC in human Cal27CisR cells using Boc-Lys(epsilon-Ac)-AMC as substrate preincubated for 18 hrs followed by substrate addition measured after 3 hrs by fluorescence assay
Type: cell-based
Provide the reported pIC50 of each item.
Conceptually, pIC50 converts a concentration in mol/L into minus its log10.

# pIC50 of O=C(CCCCCONC(=O)Nc1cccc2cccnc12)NO = 6.05

Short answer for CN1CCc2c(c3ccccc3n2Cc2ccc(C(=O)NO)cc2)C1 : pIC50 was 4.92

Sample O=C(CCCCCONC(=O)Nc1ccc2ccccc2c1)NO ; pIC50 observed: 6.00

Sure, the documented pIC50 for O=C(CCCCCONC(=O)Nc1ccc2ncccc2c1)NO is 5.96

// recorded pIC50 for Cc1ccc2cccc(NC(=O)NOCCCCCC(=O)NO)c2n1 : 5.55

Record O=C(CCCCCONC(=O)Nc1cccc2ccccc12)NO . Reported pIC50: 6.00

Entry CN(O)C(=O)CCCCCONC(=O)Nc1cccc2ccccc12 , pIC50 reported as 3.69

For COc1cc(NC(=O)NOCCCCCC(=O)NO)c2nc(OC)cc(C)c2c1 the compound record lists pIC50 as 6.30

Sample COc1cc(NC(=O)NOCCCCCC(=O)NO)c2ncccc2c1 ; pIC50 observed: 6.15

Quick note, pIC50 for O=C(CCCCCONC(=O)Nc1cnc2ccccc2c1)NO landed at 5.89

What the record says about COc1cc(NC(=O)NOCCCCCC(=O)NO)c2nc(OC(C)C)cc(C)c2c1Oc1cccc(C(F)(F)F)c1 : pIC50 is 4.25

For record COc1cc(NC(=O)NOCCCCCC(=O)NO)c2nccc(C)c2c1 the listed pIC50 is 6.30

====

Experimental system: Histone deacetylase 8 (Homo sapiens, UniProt Q9BY41)
Sequence (Q9BY41 whole entry): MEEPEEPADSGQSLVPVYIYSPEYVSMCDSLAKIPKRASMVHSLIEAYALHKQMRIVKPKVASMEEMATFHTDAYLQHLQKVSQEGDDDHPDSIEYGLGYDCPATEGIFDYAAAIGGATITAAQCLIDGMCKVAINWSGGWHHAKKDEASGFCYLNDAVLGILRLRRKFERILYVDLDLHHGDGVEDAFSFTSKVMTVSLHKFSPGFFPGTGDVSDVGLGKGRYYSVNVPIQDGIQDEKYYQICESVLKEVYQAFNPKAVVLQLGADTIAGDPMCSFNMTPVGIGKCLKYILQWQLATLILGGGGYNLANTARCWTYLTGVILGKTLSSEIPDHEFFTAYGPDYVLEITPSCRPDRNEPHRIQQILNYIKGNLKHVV
Protocol description: Inhibition of human HDAC8 using Z-L-Lys(epsilon-trifluoroacetyl)-AMC as substrate measured after 90 mins by fluorescence assay
Outcome measure: pIC50
When answering, recall that pIC50 equals minus log10 of the concentration in mol/L, and write that number alone.

Briefly, pIC50 measured for COc1cc(NC(=O)NOCCCCCC(=O)NO)c2nc(OC)cc(C)c2c1 : 5.81

====

Experimental system: Histone deacetylase 4 (Homo sapiens)
Sequence (P56524 whole entry): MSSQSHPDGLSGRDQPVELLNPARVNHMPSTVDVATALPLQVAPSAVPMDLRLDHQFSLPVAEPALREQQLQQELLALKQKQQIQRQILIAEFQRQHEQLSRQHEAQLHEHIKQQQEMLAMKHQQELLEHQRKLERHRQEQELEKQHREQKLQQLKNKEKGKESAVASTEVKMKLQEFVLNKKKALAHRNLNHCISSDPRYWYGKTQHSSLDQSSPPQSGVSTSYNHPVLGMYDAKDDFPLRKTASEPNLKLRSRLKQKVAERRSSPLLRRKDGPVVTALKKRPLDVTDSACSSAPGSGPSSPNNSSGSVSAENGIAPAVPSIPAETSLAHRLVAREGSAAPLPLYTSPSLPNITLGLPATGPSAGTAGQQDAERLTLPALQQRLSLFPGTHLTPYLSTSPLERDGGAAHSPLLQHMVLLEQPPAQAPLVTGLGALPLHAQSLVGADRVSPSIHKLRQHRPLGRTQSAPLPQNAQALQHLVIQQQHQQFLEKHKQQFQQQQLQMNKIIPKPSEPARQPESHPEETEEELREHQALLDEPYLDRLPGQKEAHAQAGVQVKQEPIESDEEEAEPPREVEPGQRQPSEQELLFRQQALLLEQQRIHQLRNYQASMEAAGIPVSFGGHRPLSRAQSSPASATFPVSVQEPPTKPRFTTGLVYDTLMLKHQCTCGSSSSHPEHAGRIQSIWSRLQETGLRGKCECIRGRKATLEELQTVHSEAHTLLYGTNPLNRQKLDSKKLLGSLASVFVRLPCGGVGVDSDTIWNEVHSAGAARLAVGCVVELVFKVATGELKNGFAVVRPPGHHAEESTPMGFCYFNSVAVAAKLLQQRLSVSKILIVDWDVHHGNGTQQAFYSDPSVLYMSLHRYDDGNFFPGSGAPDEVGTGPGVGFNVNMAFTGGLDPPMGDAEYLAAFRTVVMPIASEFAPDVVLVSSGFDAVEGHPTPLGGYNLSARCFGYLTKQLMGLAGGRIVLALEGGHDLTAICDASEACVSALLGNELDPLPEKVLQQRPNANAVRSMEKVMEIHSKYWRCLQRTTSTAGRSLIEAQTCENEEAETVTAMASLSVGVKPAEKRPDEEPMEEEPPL
Protocol description: Inhibition of recombinant human N-terminal GST-tagged/C-terminal His-tagged HDAC4 expressed in insect cells using Boc-K(Ac)-AMC as substrate by fluorescence assay
Exercise: state measured IC50 for each of the molecules provided.

Reported IC50 ( COc1cc(NC(=O)NOCCCCCC(=O)NO)c2ncccc2c1 ) = > 10 µM

In plain terms, O=C(CCCCCONC(=O)Nc1cnc2ccccc2c1)NO has a documented IC50 of > 10 µM

The molecule listed as COc1cc(NC(=O)NOCCCCCC(=O)NO)c2nccc(C)c2c1 shows IC50 equal to > 10 µM

// recorded IC50 for COc1cc(NC(=O)NOCCCCCC(=O)NO)c2nc(OC)cc(C)c2c1 : > 10 µM
